# System: DMS-273
# ASSAY INFO: NCI tumour cell line growth inhibition, 48 h
Active and inactive are the calls of the source. Rule as the data show it: active = GI50 up to about 1.1 µM and inactive = higher.
MEASURED METRIC: GI50

CC1=C(O)C(=O)[C@@H]2O[C@@H]2C1=O
22.8 µM (inactive)

Q: GI50 for CCC12C=CCN3CC[C@]4(C(=C(C(=O)OC)[C@@H]1Nc1ncnc5c1ncn5C1OC(COC(C)=O)C(OC(C)=O)C1OC(C)=O)Nc1ccccc14)C32 (stereo not given in full) ?
Ans: 2.75 µM (inactive)

Q: # GI50 lookup, item COC(=O)C12CC(c3ccccc31)C1C(=O)OC(=O)C12 (stereo not given)
Ans: > 100 µM (inactive)

Q: I have this molecule here, C/N=C(\SC)N(C)c1nc(=[N+](C)C)ss1.[O-][Cl+3]([O-])([O-])[O-] , and I need its recorded GI50.
Ans: > 100 µM (inactive)

Q: GI50 for Cc1ccc(Oc2ccccc2N)cc1 ?
Ans: 32 µM (inactive)

Q: Query (molecule): C[n+]1ccn2c3nc4ccccc4nc3c([O-])c(C#N)c21 ; field requested: GI50
Ans: > 100 µM (inactive)

Q: Entry under review: CCOC(=O)C1(Br)C(c2ccccc2)NC(=O)NC1(C)Br (stereo not given) . Reported GI50?
Ans: 90.2 µM (inactive)

Q: Endpoint output: GI50 of COc1cc(OC)c2c(c1)C(=O)C(CC1(C)OCCCO1)=CC2=O . Value?
Ans: 7.48 µM (inactive)

Q: // lookup GI50 for Cc1nc(Nc2ccccc2)sc1C(=O)NNC(N)=O
Ans: > 100 µM (inactive)

Q: // returns reported GI50 for input Cc1c(Cl)cccc1NC(=O)CC1C(=O)Nc2ccccc2S1(=O)=O (stereo not given)
Ans: 7.69 µM (inactive)

* * *

# Test system: OVCAR-8
# ASSAY INFO: NCI tumour cell line growth inhibition, 48 h
Activity calls are given as the source filed them. Cut-off read from the data, not from the text of the source: active = GI50 up to about 1.1 µM and inactive = higher.
Returns: one label drawn from active, inactive

CC(C)(C)OC(=O)N(CCCCNCc1ccc2ccccc2c1)CCCNCc1ccc2ccccc2c1
inactive

Next compound, please.
Q: Lab log entry: Cc1cc(C)n(C2OC(CO)C(O)C(O)C2O)c(=S)c1C#N (stereo not drawn) — outcome as called in the assay?
Ans: inactive

* * *

# Test system: SK-MEL-28
# ASSAY INFO: NCI tumour cell line growth inhibition, 48 h
Active and inactive are the calls of the source. Rule as the data show it: active = GI50 up to about 1.1 µM and inactive = higher.
Your response should consist of one outcome taken from T for active, F for inactive

Reference set (5 entries):
Nn1c(Sc2nc3ccccc3c(=O)n2N)nc2ccccc2c1=O
F
Cc1cc(S(=O)(=O)Nc2nnc3c(Cl)cc(C(F)(F)F)cn23)c(S)cc1Cl
F
CN(C)CC1CCCC/C1=N/OC(=O)c1ccc(Cl)cc1 (stereo unspecified)
F
CCCC(C)c1c(Cl)nc(Cl)nc1Cl (stereo unspecified)
F
COC1OC2COC(c3ccccc3)OC2C(O)C1OC(=S)c1ccccc1 (stereo unspecified)
F

Q: Assay outcome for COc1cc(C2C3=C(COC3=O)Oc3cc4c(cc32)OCO4)ccc1O (stereo unspecified) : what was it?
Ans: T

* * *

Collected GI50 values appear next to each entry.
# Test system: TK-10
# ASSAY INFO: NCI tumour cell line growth inhibition, 48 h
Active and inactive are the calls of the source. Rule as the data show it: active = GI50 up to about 1.1 µM and inactive = higher.

O=[N+]([O-])c1cccc(-c2cn3c(n2)Cc2ccccc2C3)c1
> 100 µM (inactive)
OCCCNCc1ccncc1
> 100 µM (inactive)
COc1cc2c(cc1OC)C(Cl)C(c1ccc(Cl)cc1)=C2Cl (stereo unspecified)
19.6 µM (inactive)
O=C1/C(=C/c2cccs2)NC(=S)N1CN1CCCC(CO)C1 (stereo unspecified)
> 100 µM (inactive)
O=C(O)CCN(CCC(=O)O)c1ccc(/C=C2\SC(=S)NC2=O)cc1
> 100 µM (inactive)

Could you now consider this next molecule?
Q: I have this molecule here, C=CCNC(=S)N1c2ccccc2NC(=O)CC1C (stereo unspecified) , and I need its recorded GI50.
Ans: > 100 µM (inactive)

* * *

# Test system: U-251
# ASSAY INFO: NCI tumour cell line growth inhibition, 48 h
Activity calls are given as the source filed them. Rule as the data show it: active = GI50 up to about 1.1 µM and inactive = higher.
Respond only with the outcome that fits, drawn from active, inactive

Use these answered entries as a reference point.
O=C1c2ccccc2CC1C1(O)C(=O)Nc2c(Cl)cc(Cl)cc21 (stereo unspecified)
inactive
Cc1ccc(N(C)S(=O)(=O)c2ccccc2)cc1
inactive
CCN1CCC(O)(/C=C/c2ccc(Cl)cc2)C(C(=O)/C=C/c2ccc(Cl)cc2)C1 (stereo unspecified)
inactive
Cc1nc(=O)n2c(c1C(=O)Nc1ccc(Cl)cc1)NCCC2
inactive
COC(=O)c1ccc(C)cc1/C=C1\Cc2ccc(C)cc2C1=O
inactive

Q: Each compound tested received a call. Report the one for O=C1/C(=C/c2ccccc2)CN(C(=O)Oc2ccc(Cl)cc2)C/C1=C\c1ccccc1 .
Ans: inactive

Q: Outcome logged for COc1cc(Nc2cnc3cc(F)c(F)cc3n2)cc(OC)c1OC in this assay:
Ans: inactive

Q: Answer briefly: the call reported for Cc1[nH]c2ccccc2c1CC/C(=N\Nc1ccccc1)c1ccccc1 in this assay.
Ans: inactive

Q: What call does the record list for Oc1ccc(/C=N/N=c2\[nH][nH]/c(=N\N=C\c3ccc(O)cc3O)c3ccccc23)c(O)c1 ?
Ans: active

Q: Call for entry C#CCOCC12C=CC(O1)C1C(=O)N(C)C(=O)C12 (stereo unspecified) :
Ans: inactive

Q: Fill in: this test's call for CCCC(C)c1c(Cl)nc(Cl)nc1Cl (stereo unspecified) is ___
Ans: inactive

* * *

# System: SF-539
# ASSAY INFO: NCI tumour cell line growth inhibition, 48 h
Activity calls are given as the source filed them. No stated cut-off is given here; in the data, active = GI50 up to about 1.1 µM and inactive = higher.
Log the outcome using a class from YES = active, NO = inactive

Example results:
O=C1c2ccccc2C(=O)N1CC1S(=O)(=O)OCCOS1(=O)=O
NO
C=CCC1[C@@H](C(C)(C)C(C(C)=O)C(=O)C(=O)OC)OC(C(C)(C)C)N1C(=O)OC (stereo not given in full)
NO
CCOC(=O)/C(=C\c1cn(C(C)=O)c2ccccc12)P(C)(=O)OCC (stereo not given)
NO
O=S(=O)(NC1OCCCC1I)c1ccccc1 (stereo not given)
NO

Q: Look up the recorded call for COc1cc2c(c(OC)c1OC)-c1ccc(SC)c(=O)cc1[C@@H](NC(=O)c1ccc(C#N)cc1)CC2 in this test.
Ans: YES

* * *

# Tested on: MOLT-4
# ASSAY INFO: NCI tumour cell line growth inhibition, 48 h
Calls of active or inactive are those of the source. Cut-off read from the data, not from the text of the source: active = GI50 up to about 1.1 µM and inactive = higher.
Hi! Could you answer with just one of these? yes (1) for active, no (0) for inactive

Example results:
O=C1NC(=O)C2=C1CCC2O (stereo unspecified)
no (0)
CC1(C)S[C@@H]2[C@H](NC(=O)C3(N)CCCCC3)C(=O)N2[C@H]1C(=O)O
no (0)
Cc1ccc(Cc2n[nH]c(=O)[nH]2)cc1
no (0)
C(=N\OCc1ccccc1)/c1ncccc1C1OCCO1
no (0)
C[C@@H]1[C@@H](C)C(c2ccccc2)O[Si]1(C(C)(C)C)C(C)(C)C (stereo partly specified)
no (0)
C[n+]1ccn2c3nc4ccccc4nc3c([O-])c(C#N)c21
no (0)
O=c1[nH]cc(COCC(F)(F)C(F)(F)C(F)(F)C(F)F)c(=O)[nH]1
no (0)
CC(C)(C)OC(=O)NC(Cc1ccc([N+](=O)[O-])cc1)C(=O)NC(CCCCNC(=O)OCc1ccccc1)C(=O)ON1C(=O)CCC1=O (stereo unspecified)
no (0)
COC(=O)C1=C(C(=O)OC)SC2(S1)C(C(=O)OC)=C(C(=O)OC)Sc1c2ss/c1=N\c1ccc(Cl)cc1
yes (1)
O=C(O)c1cscc1Cc1cccs1
no (0)

Shift focus to the following entry.
Q: Which outcome did this test record for the molecule COc1cc(OC)c2c(c1)C(=O)C(CC1(C)OCCCO1)=CC2=O ?
Ans: no (0)

* * *

GI50 values for the molecules below.
# Test system: MDA-MB-435
# ASSAY INFO: NCI tumour cell line growth inhibition, 48 h
The source made the active and inactive calls. Rule as the data show it: active = GI50 up to about 1.1 µM and inactive = higher.

For orientation, consider the following solved cases.
CC(=O)OCC1(CNc2nc(N)ncc2C#N)CC(CCc2ccccc2)C1 (stereo not given)
26.2 µM (inactive)
O=[N+]([O-])c1cccc(-c2nc(-c3ccccc3)c(-c3ccccc3)[nH]2)c1
> 100 µM (inactive)

Q: I have this molecule here, COc1cc2c(cc1OC)C(Cc1ccccc1CCCl)=NCC2 , and I need its recorded GI50.
Ans: 40.1 µM (inactive)

Q: Consider the molecule shown here: Nc1nc(N)c2ncn(Cc3ccccc3CO)c2n1 What is its recorded GI50?
Ans: > 100 µM (inactive)

Q: Recorded GI50 for COC(=O)[C@]1(c2cc3ccccc3[nH]2)CC2CN(CC(=O)N(C)OC)C1C1OC(C)(C)OC21 (stereo not given in full) , please?
Ans: 44.2 µM (inactive)
